- test_summary: qHTS assay to identify small molecule antagonists of the androgen receptor (AR) signaling pathway using the MDA cell line in the presence of 0.5 nM R1881 - cell viability counter screen (AID 1259242); also: nearly all actives have a fitted effect of over 45% in size
- condition_parameters: MDA-kb2 viability, CellTiter-Fluor protease fluorescence, 16 h; series mostly up to 92.4 µM
Records with an inconclusive call do not appear. The source made the active and inactive calls. Calls follow the shape of the dose curve; as a rule, active = well fitted cell-killing curve with a large enough effect in the repeat runs; inconclusive = weak or mixed curves, or effect the other way; inactive = flat fitted curve, though single readings scatter.
Classes used: t for active, f for inactive

smiles_representation=Cc1cccc2ccccc12 assigned_category=f
smiles_representation=COC1=CC(=O)C[C@@H](C)[C@]12Oc1c(Cl)c(OC)cc(OC)c1C2=O assigned_category=f
smiles_representation=N[C@@H](Cc1c[nH]c2ccc(O)cc12)C(=O)O assigned_category=f
smiles_representation=O=C(O)Cc1cccc2ccccc12 assigned_category=f
smiles_representation=CO[C@H]1C=CO[C@@]2(C)Oc3c(C)c(O)c4c(O)c(c(/C=N/N5CCN(C)CC5)c(O)c4c3C2=O)NC(=O)/C(C)=C\C=C[C@H](C)[C@H](O)[C@@H](C)[C@@H](O)[C@@H](C)[C@H](OC(C)=O)[C@@H]1C assigned_category=t
smiles_representation=CCc1cc(C(N)=S)ccn1 assigned_category=f
smiles_representation=CC(C)(C)CC(C)(C)c1ccc(O)c(-n2nc3ccccc3n2)c1 assigned_category=f
smiles_representation=C=CC(=O)NC(C)(C)CS(=O)(=O)O assigned_category=f
smiles_representation=C#C[C@]1(O)CC[C@H]2[C@@H]3CCC4=CC(=O)CC[C@@H]4[C@H]3CC[C@@]21CC assigned_category=f
smiles_representation=OC[C@@H](O)[C@@H](O)[C@H](O)[C@H](O)CO assigned_category=f

FYI, the data here is from PubChem BioAssay (Tox21).
